Where these numbers come from: patent US10125098B2

# TARGET OF ASSAY: human NaV1.7 (Homo sapiens, UniProt Q15858)
# Construct: permanently transfected with an expression vector containing the full-length cDNA coding for the desired human sodium channel α-subunit
# EXPERIMENT: Patch voltage clamp electrophysiology assay (EP), NaV1.7
# CONDITION SET: HEK-293 cells stably expressing NaV1.7 with β1 subunit; whole-cell patch clamp, membrane potential −60 mV (inactivated state)
MEASUREMENT LABEL: IC50 (nM)

Below: 2 compounds and their reported IC50.
1. CCc1cc(C(=O)N2CCC[C@H]2C(=O)O)c(F)cc1OCC12CC3CC(CC(C3)C1)C2	790
2. O=C(O)[C@@H]1CCCN1C(=O)c1cc(C2CC2)c(OCC2CCN([C@@H](c3cc(Cl)cc(Cl)c3)C(F)(F)F)CC2)cc1F (single isomer, unassigned) [Example 123b]	410

1. CC1(C)CCN(C(=O)c2cc(C3CC3)c(OCC34CC5CC(CC(C5)C3)C4)cc2F)C1C(=O)O (stereo in doubt)
2. C[C@H](NC(=O)c1cc(C2CC2)c(OCC23CC4CC(CC(C4)C2)C3)cc1F)C(=O)O
Between these two entries, 1 and 2 , state which has the higher IC50. Output the label that corresponds to your choice.
1
(1: 780 nM, 2: 36.1 nM)

----------
# TARGET OF ASSAY: hNav1.7 (Homo sapiens)
# Sequence (Q15858 1-1977 isoform Q15858-3): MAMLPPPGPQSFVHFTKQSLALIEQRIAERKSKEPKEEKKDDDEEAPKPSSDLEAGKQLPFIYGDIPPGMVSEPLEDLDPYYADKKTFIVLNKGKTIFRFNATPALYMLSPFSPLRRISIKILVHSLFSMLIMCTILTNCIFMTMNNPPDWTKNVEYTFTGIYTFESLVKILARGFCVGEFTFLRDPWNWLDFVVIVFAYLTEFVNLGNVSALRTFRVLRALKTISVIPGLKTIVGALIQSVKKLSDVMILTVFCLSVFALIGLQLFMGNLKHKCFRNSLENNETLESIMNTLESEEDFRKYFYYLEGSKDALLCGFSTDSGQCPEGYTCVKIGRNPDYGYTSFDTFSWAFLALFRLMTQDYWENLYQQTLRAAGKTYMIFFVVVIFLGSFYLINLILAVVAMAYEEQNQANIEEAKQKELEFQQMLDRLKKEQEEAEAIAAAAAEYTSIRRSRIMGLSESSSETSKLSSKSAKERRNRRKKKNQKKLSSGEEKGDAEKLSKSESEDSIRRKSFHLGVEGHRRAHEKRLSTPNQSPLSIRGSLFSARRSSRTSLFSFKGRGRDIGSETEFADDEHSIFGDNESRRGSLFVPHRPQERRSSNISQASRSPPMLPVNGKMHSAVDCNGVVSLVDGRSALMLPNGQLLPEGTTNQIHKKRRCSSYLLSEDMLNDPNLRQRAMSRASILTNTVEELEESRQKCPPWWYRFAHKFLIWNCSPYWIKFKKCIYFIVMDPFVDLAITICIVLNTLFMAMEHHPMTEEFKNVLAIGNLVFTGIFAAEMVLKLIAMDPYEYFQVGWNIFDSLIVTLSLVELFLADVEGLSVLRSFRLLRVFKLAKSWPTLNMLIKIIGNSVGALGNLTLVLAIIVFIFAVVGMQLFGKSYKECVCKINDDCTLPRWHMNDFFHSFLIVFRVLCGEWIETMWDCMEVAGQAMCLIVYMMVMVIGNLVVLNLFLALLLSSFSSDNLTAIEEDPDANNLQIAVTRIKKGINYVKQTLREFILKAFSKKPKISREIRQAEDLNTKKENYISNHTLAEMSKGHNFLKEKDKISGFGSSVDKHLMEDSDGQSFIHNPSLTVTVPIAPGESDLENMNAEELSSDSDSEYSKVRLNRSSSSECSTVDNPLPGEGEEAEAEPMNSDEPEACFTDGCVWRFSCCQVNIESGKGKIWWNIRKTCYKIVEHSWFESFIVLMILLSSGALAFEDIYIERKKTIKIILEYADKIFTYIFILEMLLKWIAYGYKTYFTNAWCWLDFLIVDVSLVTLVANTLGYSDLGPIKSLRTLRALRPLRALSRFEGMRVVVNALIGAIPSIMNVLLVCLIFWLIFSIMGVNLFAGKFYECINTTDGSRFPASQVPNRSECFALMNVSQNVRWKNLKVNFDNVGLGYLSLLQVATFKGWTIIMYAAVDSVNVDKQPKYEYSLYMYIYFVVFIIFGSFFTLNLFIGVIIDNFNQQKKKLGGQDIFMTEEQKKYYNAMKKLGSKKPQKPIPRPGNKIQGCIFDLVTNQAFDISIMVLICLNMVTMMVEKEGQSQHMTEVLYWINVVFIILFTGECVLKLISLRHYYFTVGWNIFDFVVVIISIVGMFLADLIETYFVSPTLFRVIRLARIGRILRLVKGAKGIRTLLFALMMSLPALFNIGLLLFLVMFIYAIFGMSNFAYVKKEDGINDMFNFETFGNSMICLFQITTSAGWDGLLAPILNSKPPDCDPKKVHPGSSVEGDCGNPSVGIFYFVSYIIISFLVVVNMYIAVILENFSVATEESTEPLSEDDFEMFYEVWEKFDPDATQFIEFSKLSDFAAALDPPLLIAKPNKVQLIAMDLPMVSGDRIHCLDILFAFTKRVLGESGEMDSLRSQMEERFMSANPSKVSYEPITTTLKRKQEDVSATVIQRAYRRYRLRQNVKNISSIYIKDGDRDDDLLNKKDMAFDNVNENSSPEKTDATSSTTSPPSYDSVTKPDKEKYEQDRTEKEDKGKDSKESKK
# Sequence (Q07699 19-218 partner): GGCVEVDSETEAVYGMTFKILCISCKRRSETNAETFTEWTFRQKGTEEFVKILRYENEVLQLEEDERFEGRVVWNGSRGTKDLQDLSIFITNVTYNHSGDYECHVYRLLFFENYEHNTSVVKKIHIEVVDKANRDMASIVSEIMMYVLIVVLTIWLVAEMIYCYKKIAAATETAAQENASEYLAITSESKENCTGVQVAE
# EXPERIMENT: Tritiated compound binding (LBA) to membranes from cells expressing hNav1.7 and the β1 subunit, competitive binding
# CONDITION SET: competitive binding vs 100 pM [3H]compound, 18 h, room temperature, membranes with hNav1.7 and β1 subunit
pIC50: −log10 of the molar value. Counter-ions that a name gives are not always drawn.
MEASUREMENT LABEL: pIC50

Below: 2 compounds and their reported pIC50.
1. O=C(O)[C@@H]1C[C@@H](F)CN1C(=O)c1cc(C2CC2)c(OCC2CCN(Cc3cc(Cl)cc(OC(F)(F)F)c3)CC2)cc1F	7.43
2. CO[C@@H]1C[C@@H](C(=O)O)N(C(=O)c2cc(C3CC3)c(OCC34CC5CC(CC(C5)C3)C4)cc2F)C1	7.47

I. O=C(O)[C@@H]1CCCN1C(=O)c1cc(Cl)c(Oc2cnc(OCC(F)(F)F)c(Cl)c2)cc1F [Example 191, trifluoroacetate]
II. CC1[C@@H](C(=O)O)N(C(=O)c2cc(C3CC3)c(OCC3(F)CCN([C@@H](C)c4cc(Cl)cc(Cl)c4)CC3)cc2F)C[C@@H]1F (stereo partly drawn)
III. O=C(O)[C@@H]1CCCN1C(=O)c1cc(C2CC2)c(COc2cc(Cl)cc(OC(F)(F)F)c2)cc1F
IV. C[C@H]1CCN(C(=O)c2cc(C3CC3)c(OCC3CCN([C@@H](c4cc(Cl)cc(Cl)c4)C(F)(F)F)CC3)cc2F)[C@@H]1C(=O)O (single isomer, unassigned) [Example 121b]
Rank descending by pIC50. Labels, requested order.
IV, III, II, I
(IV: 7.74, III: 7.49, II: 6.70, I: 5.57)

----------
Overview of reported IC50 across a group of compounds:
# TARGET OF ASSAY: NaV1.5 (Homo sapiens)
# Construct: permanently transfected with an expression vector containing the full-length cDNA coding for the desired human sodium channel α-subunit; expressed in transfected cells; host or cells: HEK-293
# Sequence (Q14524 whole entry): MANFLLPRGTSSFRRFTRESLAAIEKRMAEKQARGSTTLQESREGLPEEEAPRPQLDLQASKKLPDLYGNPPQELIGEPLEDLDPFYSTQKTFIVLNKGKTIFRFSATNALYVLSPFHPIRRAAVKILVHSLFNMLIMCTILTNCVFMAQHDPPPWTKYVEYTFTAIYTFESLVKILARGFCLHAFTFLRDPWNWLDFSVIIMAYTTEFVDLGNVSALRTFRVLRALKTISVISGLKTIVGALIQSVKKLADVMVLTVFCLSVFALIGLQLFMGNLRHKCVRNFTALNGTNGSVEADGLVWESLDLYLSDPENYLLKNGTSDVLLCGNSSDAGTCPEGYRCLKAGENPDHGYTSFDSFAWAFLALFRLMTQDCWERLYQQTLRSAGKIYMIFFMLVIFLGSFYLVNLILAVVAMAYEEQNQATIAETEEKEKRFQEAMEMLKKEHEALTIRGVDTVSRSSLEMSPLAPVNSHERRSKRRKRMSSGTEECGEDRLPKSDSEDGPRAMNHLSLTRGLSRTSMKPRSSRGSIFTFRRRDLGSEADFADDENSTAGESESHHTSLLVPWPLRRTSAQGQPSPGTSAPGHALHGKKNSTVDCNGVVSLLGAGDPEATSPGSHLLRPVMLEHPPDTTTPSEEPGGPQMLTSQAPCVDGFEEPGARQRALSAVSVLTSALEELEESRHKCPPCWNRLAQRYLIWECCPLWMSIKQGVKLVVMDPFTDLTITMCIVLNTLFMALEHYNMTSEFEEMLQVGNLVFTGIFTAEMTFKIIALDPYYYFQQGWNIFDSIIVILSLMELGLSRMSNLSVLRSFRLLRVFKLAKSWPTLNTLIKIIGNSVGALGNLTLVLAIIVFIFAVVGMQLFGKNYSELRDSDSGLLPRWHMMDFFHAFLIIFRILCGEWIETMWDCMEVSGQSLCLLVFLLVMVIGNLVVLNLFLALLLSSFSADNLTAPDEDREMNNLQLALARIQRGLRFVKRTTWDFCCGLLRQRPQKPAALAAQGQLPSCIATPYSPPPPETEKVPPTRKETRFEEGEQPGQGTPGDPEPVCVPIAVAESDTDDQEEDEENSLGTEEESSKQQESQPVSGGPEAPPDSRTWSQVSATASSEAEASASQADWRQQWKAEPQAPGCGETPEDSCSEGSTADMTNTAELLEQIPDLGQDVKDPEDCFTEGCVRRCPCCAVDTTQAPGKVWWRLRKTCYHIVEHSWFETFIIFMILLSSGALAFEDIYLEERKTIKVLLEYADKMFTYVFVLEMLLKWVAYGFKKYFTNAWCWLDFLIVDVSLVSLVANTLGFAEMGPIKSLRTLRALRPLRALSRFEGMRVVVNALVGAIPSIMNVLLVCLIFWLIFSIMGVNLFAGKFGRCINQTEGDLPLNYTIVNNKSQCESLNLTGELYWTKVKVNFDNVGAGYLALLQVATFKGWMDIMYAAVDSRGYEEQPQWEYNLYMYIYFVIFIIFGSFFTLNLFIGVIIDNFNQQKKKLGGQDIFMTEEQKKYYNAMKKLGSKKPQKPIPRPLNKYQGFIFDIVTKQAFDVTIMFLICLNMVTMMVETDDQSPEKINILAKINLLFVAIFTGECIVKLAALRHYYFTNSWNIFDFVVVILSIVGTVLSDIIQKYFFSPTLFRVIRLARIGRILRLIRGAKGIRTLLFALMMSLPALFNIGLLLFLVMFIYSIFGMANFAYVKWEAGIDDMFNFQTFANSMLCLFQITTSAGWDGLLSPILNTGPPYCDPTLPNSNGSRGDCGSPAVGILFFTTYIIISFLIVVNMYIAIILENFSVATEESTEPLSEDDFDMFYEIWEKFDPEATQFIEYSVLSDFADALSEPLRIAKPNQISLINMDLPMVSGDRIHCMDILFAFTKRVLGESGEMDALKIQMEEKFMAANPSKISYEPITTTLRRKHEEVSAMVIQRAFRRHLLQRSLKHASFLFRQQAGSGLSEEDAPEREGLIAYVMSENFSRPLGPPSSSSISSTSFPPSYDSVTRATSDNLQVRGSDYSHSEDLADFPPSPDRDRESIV
# EXPERIMENT: Patch voltage clamp electrophysiology assay (EP), NaV1.5
# Type: cell-based
# CONDITION SET: HEK-293 cells stably expressing NaV1.5 with β1 subunit; whole-cell patch clamp, membrane potential −60 mV (inactivated state); read-out: Nav1.5
Answer with a number only, understood to be in µM.

1) C[C@@H](c1cc(Cl)cc(Cl)c1)N1CCC(COc2cc(F)c(C(=O)N3C[C@H](F)C[C@H]3C(=O)O)cc2C2CC2)CC1	18
2) CC1(COc2cc(F)c(C(=O)N3CCC[C@H]3C(=O)O)cc2C2CC2)CCC2(CC1)CC2	21
3) O=C(O)[C@@H]1C[C@@H](F)CN1C(=O)c1cc(C2CC2)c(OCC2(F)CCN(Cc3cc(C(F)(F)F)cc(Cl)c3F)CC2)cc1F	23
4) C[C@H]1OCN(C(=O)c2cc(C3CC3)c(OCC3CCN(Cc4cc(C(F)(F)F)cc(Cl)c4F)CC3)cc2F)[C@@H]1C(=O)O	16
5) C[C@@H]1SCN(C(=O)c2cc(C3CC3)c(OCC34CC5CC(CC(C5)C3)C4)cc2F)[C@@H]1C(=O)O [Example 142a]	17

Return IC50 measured with NaV1.5 (Homo sapiens) given this compound: O=C(O)C1=CCCN1C(=O)c1cc(C2CC2)c(OCC23CC4CC(CC(C4)C2)C3)cc1F
28

Return IC50 measured with NaV1.5 (Homo sapiens) given this compound: O=C(O)[C@@H]1CCN1C(=O)c1cc(C2CC2)c(OCC23CC4CC(CC(C4)C2)C3)cc1F
26
